The measurements presented in this section are drawn from patent US20210277110A1.

- measurement_target: T1, Extracellular domain of human PD1 (huPD1-ECD) (human, UniProt Q15116 25-169, biotinylated in the ligand inhibition assay (sites not given))
- T1 construct: Expressed with a hexahistidine tag or as Fc fusion; also called biotinylated PD-1
- T1 sequence (Q15116 25-169 limits assumed): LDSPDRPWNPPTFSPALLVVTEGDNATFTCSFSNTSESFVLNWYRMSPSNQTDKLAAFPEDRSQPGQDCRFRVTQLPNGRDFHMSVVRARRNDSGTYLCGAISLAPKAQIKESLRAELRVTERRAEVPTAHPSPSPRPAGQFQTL
- assay_method_text: SPR ProteOn, captured mAb, huPD1-ECD analyte;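 also: SPR on ProteOn XPR36, antibodies captured by anti-IgG Fc on a GLC chip, data fitted with a Langmuir 1:1 model to give on-rate, off-rate and equilibrium KD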
observed_property: Kd (nM)
Numbers only, in nM.

Sample answers from the record:
[
  {
    "binder": "PD1B199 (antibody, V domains shown, also called PD1H164/PD1L86) VH: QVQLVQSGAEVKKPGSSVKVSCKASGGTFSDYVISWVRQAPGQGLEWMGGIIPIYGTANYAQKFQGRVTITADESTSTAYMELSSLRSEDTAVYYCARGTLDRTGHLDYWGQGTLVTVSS VL: EIVLTQSPATLSLSPGERATLSCRASQSVSSYLAWYQQKPGQAPRLLIHDASTRATGIPARFSGSGSGTDFTLTISSLEPEDFAVYYCQQRNYWPLTFGQGTKVEIK",
    "unit_tag": "nM",
    "Kd": 0.6
  },
  {
    "binder": "PD1B71 (antibody, V domains shown, Tested as IgG2sigma/kappa; also called PD1H108/PH9L3) VH: QVQLVQSGAEVKKPGSSVKVSCKASGGTFSSYAISWVRQAPGQGLEWMGGIIPIFGTANYAQKFQGRVTITADESTSTAYMELSSLRSEDTAVYYCARGTLDRTGHLDYWGQGTLVTVSS VL: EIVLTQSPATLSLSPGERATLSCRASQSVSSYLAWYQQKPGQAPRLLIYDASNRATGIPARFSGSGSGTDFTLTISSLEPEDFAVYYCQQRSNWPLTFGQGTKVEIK",
    "unit_tag": "nM",
    "Kd": 23.5
  },
  {
    "binder": "PD1B11 (antibody, V domains shown, Tested as IgG2sigma/kappa; also called PD1H3/PH9L3) VH: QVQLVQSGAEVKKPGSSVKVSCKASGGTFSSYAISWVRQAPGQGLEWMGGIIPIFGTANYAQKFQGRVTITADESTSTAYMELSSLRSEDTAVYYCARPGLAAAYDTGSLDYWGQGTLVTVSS VL: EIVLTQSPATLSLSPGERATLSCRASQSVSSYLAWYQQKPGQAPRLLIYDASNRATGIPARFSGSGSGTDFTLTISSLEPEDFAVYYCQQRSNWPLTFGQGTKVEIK",
    "unit_tag": "nM",
    "Kd": 9.7
  },
  {
    "binder": "PD1B201 (antibody, V domains shown, also called PD1H164/PD1L190) VH: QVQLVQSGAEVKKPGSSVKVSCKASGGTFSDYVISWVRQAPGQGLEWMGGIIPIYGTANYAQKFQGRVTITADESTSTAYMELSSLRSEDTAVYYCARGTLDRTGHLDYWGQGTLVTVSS VL: EIVLTQSPATLSLSPGERATLSCRASQSVSNYLAWYQQKPGQAPRLLIYDASNRATGIPARFSGSGSGTDFTLTISSLEPEDFAVYYCQQRNYWPLTFGQGTKVEIK",
    "unit_tag": "nM",
    "Kd": 1.12
  }
]

Please give Kd for each item listed below.
1. PD1B195 (antibody, V domains shown, also called PD1H170/PD1L67) VH: QVQLVQSGAEVKKPGSSVKVSCKASGGTFSSYAISWVRQAPGQGLEWMGGIIPIFDTANYAQKFQGRVTITADESTSTAYMELSSLRSEDTAVYYCARPGLAAAYDTGSLDYWGQGTLVTVSS VL: EIVLTQSPATLSLSPGERATLSCRASQSVDSYLAWYQQKPGQAPRLLIYDASNRATGIPARFSGSGSGTDFTLTISSLEPEDFAVYYCQQREYWPLTFGQGTKVEIK
2. PD1B200 (antibody, V domains shown, also called PD1H164/PD1L168) VH: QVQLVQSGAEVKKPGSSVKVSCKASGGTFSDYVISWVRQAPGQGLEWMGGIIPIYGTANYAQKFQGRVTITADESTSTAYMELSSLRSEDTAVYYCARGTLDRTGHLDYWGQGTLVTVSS VL: EIVLTQSPATLSLSPGERATLSCRASQSVDNYLAWYQQKPGQAPRLLIHDASNRATGIPARFSGSGSGTDFTLTISSLEPEDFAVYYCQQRSAWPLTFGQGTKVEIK
3. PD1B197 (antibody, V domains shown, also called PD1H163/PD1L185) VH: QVQLVQSGAEVKKPGSSVKVSCKASGGTFKSYVIHWVRQAPGQGLEWMGGIIPIFGTANYAQKFQGRVTITADESTSTAYMELSSLRSEDTAVYYCARGYVRATGMLDYWGQGTLVTVSS VL: EIVLTQSPATLSLSPGERATLSCRASQSVSNYLAWYQQKPGQAPRLLIYDASNRATGIPARFSGSGSGTDFTLTISSLEPEDFAVYYCQQRAYWPLTFGQGTKVEIK
4. PD1B70 (antibody, V domains shown, Tested as IgG2sigma/kappa; also called PD1H107/PH9L3) VH: QVQLVQSGAEVKKPGSSVKVSCKASGGTFSSYAISWVRQAPGQGLEWMGGIIPIFGTANYAQKFQGRVTITADESTSTAYMELSSLRSEDTAVYYCARGYVRATGMLDYWGQGTLVTVSS VL: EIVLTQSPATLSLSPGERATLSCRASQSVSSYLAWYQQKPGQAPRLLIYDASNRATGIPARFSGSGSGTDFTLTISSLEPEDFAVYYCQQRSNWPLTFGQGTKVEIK

1.23
1.17
4.9
45.4
